Would you mind telling me the reported EC50 of each entry?
- target.desc: horseradish peroxidase (HRP) tagged delF508-CFTR (Homo sapiens, UniProt P13569, DEL508-508)
- Construct: expressed in transfected cells
- Sequence (P13569 with tags, fused parts or gaps DEL508-508): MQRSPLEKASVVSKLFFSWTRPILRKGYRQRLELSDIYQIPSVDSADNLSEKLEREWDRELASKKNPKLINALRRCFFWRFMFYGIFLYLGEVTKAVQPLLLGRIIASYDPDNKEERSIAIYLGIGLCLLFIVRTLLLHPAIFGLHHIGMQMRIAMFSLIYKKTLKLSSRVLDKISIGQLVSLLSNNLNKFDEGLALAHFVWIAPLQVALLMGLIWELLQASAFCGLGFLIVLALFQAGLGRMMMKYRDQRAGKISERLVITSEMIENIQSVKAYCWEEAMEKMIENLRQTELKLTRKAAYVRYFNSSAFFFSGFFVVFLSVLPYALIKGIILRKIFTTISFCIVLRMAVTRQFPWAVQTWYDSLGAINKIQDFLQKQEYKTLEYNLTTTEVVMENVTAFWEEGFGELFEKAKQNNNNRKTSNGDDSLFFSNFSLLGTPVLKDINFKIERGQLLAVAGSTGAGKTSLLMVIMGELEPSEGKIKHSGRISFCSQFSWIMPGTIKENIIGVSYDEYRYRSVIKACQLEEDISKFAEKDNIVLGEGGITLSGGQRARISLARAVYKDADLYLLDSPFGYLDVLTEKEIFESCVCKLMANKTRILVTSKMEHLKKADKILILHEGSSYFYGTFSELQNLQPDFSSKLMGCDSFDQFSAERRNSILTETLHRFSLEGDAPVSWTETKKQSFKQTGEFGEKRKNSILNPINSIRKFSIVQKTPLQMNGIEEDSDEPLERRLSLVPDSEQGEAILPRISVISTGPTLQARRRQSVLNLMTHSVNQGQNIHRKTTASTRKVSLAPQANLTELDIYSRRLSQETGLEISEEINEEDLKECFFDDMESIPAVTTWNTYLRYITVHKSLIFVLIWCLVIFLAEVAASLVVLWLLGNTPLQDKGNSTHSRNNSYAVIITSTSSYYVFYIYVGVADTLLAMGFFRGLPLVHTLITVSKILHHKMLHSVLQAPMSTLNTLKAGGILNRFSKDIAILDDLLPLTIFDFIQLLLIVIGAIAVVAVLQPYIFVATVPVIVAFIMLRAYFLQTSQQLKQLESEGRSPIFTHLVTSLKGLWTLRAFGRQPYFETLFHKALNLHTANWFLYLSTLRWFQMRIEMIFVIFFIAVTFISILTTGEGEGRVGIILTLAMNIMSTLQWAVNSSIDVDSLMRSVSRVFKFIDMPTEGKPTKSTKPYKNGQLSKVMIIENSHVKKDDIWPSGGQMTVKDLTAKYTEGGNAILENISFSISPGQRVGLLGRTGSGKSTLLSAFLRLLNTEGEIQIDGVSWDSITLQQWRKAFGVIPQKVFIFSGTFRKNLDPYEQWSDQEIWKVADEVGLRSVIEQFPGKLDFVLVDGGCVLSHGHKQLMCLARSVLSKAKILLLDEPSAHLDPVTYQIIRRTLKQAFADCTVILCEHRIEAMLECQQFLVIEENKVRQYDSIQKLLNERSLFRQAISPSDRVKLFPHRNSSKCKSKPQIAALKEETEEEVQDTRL
- method.notes: Measurement of delF508-CFTR-HRP surface expression in CFBE41o- cells
- Format: cell-based
- reported.conditions: delF508-CFTR-HRP surface expression, CFBE41o- cells; read-out: DelF508-CFTR-HRP EC50
Counter-ions that a name gives are not always drawn.
Give bare numbers, in nM.

Recorded EC50, per entry:
[
  {
    "compound": "Cc1c(F)cccc1-c1nc(NS(=O)(=O)c2cccc(N3CCC(C)(C(=O)O)CC3)n2)ccc1C(F)(F)F",
    "value.reported": 2870
  },
  {
    "compound": "Cc1ccccc1-c1nc(NS(=O)(=O)c2cccc(N)n2)ccc1Br",
    "value.reported": 1880
  },
  {
    "compound": "COc1ccc(Cl)c(-c2nc(NS(=O)(=O)c3cccc(N4CCNCC4)n3)ccc2C(F)(F)F)c1 [Example 154, hydrochloride]",
    "value.reported": 3460
  },
  {
    "compound": "CCOC(=O)C1(C)CCN(c2cccc(S(=O)(=O)Nc3ccc(C(F)(F)F)c(-c4cccc(F)c4C)n3)n2)CC1",
    "value.reported": 1390
  },
  {
    "compound": "Nc1cccc(S(=O)(=O)Nc2ccc(Cl)c(-c3ccccc3Cl)n2)n1",
    "value.reported": 1460
  },
  {
    "compound": "Cc1ccccc1-c1nc(NS(=O)(=O)c2cccc(N[C@@H]3CCNC3)n2)ccc1C(F)(F)F [Example 123, Hydrochloride]",
    "value.reported": 3150
  }
]

Quick batch: EC50 for everything below.
1. O=S(=O)(Nc1ccc(C(F)(F)F)c(-c2cccc(F)c2Cl)n1)c1cccc(N2CC(O)C2)n1
2. Cc1ccccc1-c1nc(NS(=O)(=O)c2cccc(N3CCN4C[C@@H](F)C[C@@H]4C3)n2)ccc1C(F)(F)F
3. Cc1ccccc1-c1nc(NS(=O)(=O)c2cccc(N3CCNC4(CC4)C3)n2)ccc1C(F)(F)F
4. Cc1ccc(C#N)cc1-c1nc(NS(=O)(=O)c2ccnc(N)c2)ccc1Cl
5. Cc1ccccc1-c1nc(NS(=O)(=O)c2cccc(N[C@@H]3CCOC[C@@H]3O)n2)ccc1C(F)(F)F (single isomer, unassigned) [Example 276]
6. COc1ccc(Cl)c(-c2nc(NS(=O)(=O)c3cccc(N4CC(O)C4)n3)ccc2C(F)(F)F)c1
7. Cc1ccccc1-c1nc(NS(=O)(=O)c2cccc(N3CCC34CN(C(=O)OC(C)(C)C)C4)n2)ccc1C(F)(F)F
8. Cc1ccccc1-c1nc(NS(=O)(=O)c2cccc(N)n2)ccc1F

1. 2940
2. 681
3. 2320
4. 3680
5. 3200
6. 2400
7. 670
8. 2640

Report measured EC50; entry is "Nc1cccc(S(=O)(=O)Nc2ccc(C(F)(F)F)c(-c3ccccc3C3CC3)n2)n1" 1380

The measured values listed here are drawn from patent US11066369B2.
